Each item that follows carries a reported Kd.
# test target: T1, Aβ oligomers prepared from Amyloid β-protein, Human 1-42 peptide (human, UniProt P05067 672-713)
# T1 construct: domain: Amyloid β-protein, Human 1-42 peptide; Non-covalent oligomer of synthetic Aβ1-42; Immobilized on a CM5 chip by amine coupling; also called amyloid β protein oligomer
# T1 sequence (P05067 672-713 limits assumed): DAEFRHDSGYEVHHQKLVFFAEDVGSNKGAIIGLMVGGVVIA
# assay info: SPR (Biacore T100), Aβ oligomers amine-coupled on CM5 chip, antibody injected, Bivalent Analyte model (kd1/ka1)
Write the answer as a number in nM, unit excluded.

binder: anti-Aβ oligomer humanized antibody HV0LV0 (antibody, V domains shown, Whole humanized antibody expressed from vector pKANTEX93 (WO 97/10354) with human constant regions; Produced in FUT8 knockout CHO/DG44 cells (no core fucose); also called 6E4HV0 + 6E4LV0) VH: QVQLVQSGAEVKKPGASVKVSCKASGYTFTSYWMHWVRQAPGQGLEWMGEINPRNGGTNNNENFKRRVTITADTSTSTAYMELSSLRSEDTAVYYCARDGNYDPFAYWGQGTLVTVSS VL: DIVMTQSPLSLPVTPGEPASISCRSSQSLVHSNGNTYLHWYLQKPGQSPQLLIYKVSNRFSGVPDRFSGSGSGTDFTLKISRVEAEDVGVYYCSQSTHVPPYTFGQGTKLEIK
unit descriptor: nM
Kd: 40

Q: Request the reported Kd associated with anti-Aβ oligomer humanized antibody HV12LV4 (antibody, V domains shown) VH: QVQLVQSGAEVVKPGASVKLSCKASGYTFTSYWMHWVKLAPGQGFEWIGEINPRNGGTNNNENFKRKATLTVDKSTSTAYMELSSLRSEDTAVYYCTRDGNYDPFAYWGQGTLVTVSS VL: DVVMTQSPLSLPVTLGEPASISCRSSQSLVHSNGNTYLHWYLQKPGQSPKLLIYKVSNRFSGVPDRFSGSGSGTDFTLKISRVEAEDVGVYFCSQSTHVPPYTFGQGTKLEIK
Ans: 300

Q: Report Kd for anti-Aβ oligomer humanized antibody HV0LV2a (antibody, V domains shown, also called 6E4HV0 + LV2a) VH: QVQLVQSGAEVKKPGASVKVSCKASGYTFTSYWMHWVRQAPGQGLEWMGEINPRNGGTNNNENFKRRVTITADTSTSTAYMELSSLRSEDTAVYYCARDGNYDPFAYWGQGTLVTVSS VL: DIVMTQSPLSLPVTPGEPASISCRSSQSLVHSNGNTYLHWYLQKPGQSPKLLIYKVSNRFSGVPDRFSGSGSGTDFTLKISRVEAEDVGVYFCSQSTHVPPYTFGQGTKLEIK please.
Ans: 61

Q: For anti-Aβ oligomer humanized antibody HV0LV4 (antibody, V domains shown, also called 6E4HV0 + LV4) VH: QVQLVQSGAEVKKPGASVKVSCKASGYTFTSYWMHWVRQAPGQGLEWMGEINPRNGGTNNNENFKRRVTITADTSTSTAYMELSSLRSEDTAVYYCARDGNYDPFAYWGQGTLVTVSS VL: DVVMTQSPLSLPVTLGEPASISCRSSQSLVHSNGNTYLHWYLQKPGQSPKLLIYKVSNRFSGVPDRFSGSGSGTDFTLKISRVEAEDVGVYFCSQSTHVPPYTFGQGTKLEIK , what is its reported Kd?
Ans: 71
